# experimentDescription: Mouse Pharmacokinetics Study
# Assay type: in vivo
# condition: mouse; CD-1 mice, PO 25 mg/kg, plasma
experimentalReadout: AUC (ng·h/mL)
Answer with a number only, understood to be in ng·h/mL.

CCCS(=O)(=O)Nc1cccc(Oc2ccc3c(c2)C2=NCCN2C=N3)c1Cl; 8220

As a next step, examine the compound that follows.
Given the compound CCCS(=O)(=O)Nc1cccc(Oc2ccc3c(c2)C2=NCCCN2C=N3)c1Cl , what is its reported AUC? 53800

---

# Test system: P-glycoprotein (MDR1)
# experimentDescription: MDCK-MDR1 Permeability Assay
# Type: in vitro ADME, canine
# condition: dog; MDCK-MDR1, apical to basolateral, 1-30 μM, 120 minutes
experimentalReadout: Papp A→B at 120 min (×10⁻⁶ cm/s)
Answer with a number only, understood to be in ×10⁻⁶ cm/s.

Given the compound CCCS(=O)(=O)Nc1cccc(Oc2ccc3c(c2)C2=NCCCN2C=N3)c1Cl [Compound 21] , what is its reported Papp A→B at 120 min? 24.1

Given the compound CCCS(=O)(=O)Nc1cccc(Oc2ccc3c(c2)C2=NCCN2C=N3)c1Cl [Compound 6] , what is its reported Papp A→B at 120 min? 26.3

Given the compound N#Cc1c(NS(=O)(=O)c2cccs2)cccc1Oc1ccc2c(c1)C1=NCCN1C=N2 [Compound 15] , what is its reported Papp A→B at 120 min? 3.1

Given the compound CCCS(=O)(=O)Nc1ccc(F)c(Oc2ccc3c(c2)C2=NCCCN2C=N3)c1C#N [Compound 17] , what is its reported Papp A→B at 120 min? 0.7

---

Papp B→A at 120 min: recorded values
# experimentDescription: Caco-2 Permeability Assay
# Format: in vitro ADME
# condition: human; Caco-2, basolateral to apical, 1-30 μM, 120 minutes
The answer consists of two parts: a number and, after it, its unit.

Some solved entries appear below for comparison.
CCCS(=O)(=O)Nc1cccc(Oc2ccc3c(c2)C2=NCCN2C=N3)c1C#N [Compound 1]; 18.7 ×10⁻⁶ cm/s
CCCS(=O)(=O)Nc1cccc(Oc2ccc3c(c2)C2=NCCCN2C=N3)c1F [Compound 18]; 24.9 ×10⁻⁶ cm/s
CCCS(=O)(=O)Nc1ccc(F)c(Oc2ccc3c(c2)C2=NCCN2C=N3)c1C#N [Compound 3]; 13.7 ×10⁻⁶ cm/s

Given the molecule CCCS(=O)(=O)Nc1cccc(Oc2ccc3c(c2)C2=NCCN2C=N3)c1Cl [Compound 6] , what is its reported Papp B→A at 120 min? 13.5 ×10⁻⁶ cm/s

Given the molecule CCCS(=O)(=O)Nc1cccc(Oc2ccc3c(c2)C2=NCCCN2C=N3)c1Cl [Compound 21] , what is its reported Papp B→A at 120 min? 19.2 ×10⁻⁶ cm/s

Given the molecule N#Cc1c(NS(=O)(=O)c2cccs2)cccc1Oc1ccc2c(c1)C1=NCCN1C=N2 [Compound 15] , what is its reported Papp B→A at 120 min? 14.9 ×10⁻⁶ cm/s

Given the molecule N#Cc1c(NS(=O)(=O)c2ccccc2F)cccc1Oc1ccc2c(c1)C1=NCCN1C=N2 [Compound 14] , what is its reported Papp B→A at 120 min? 17.7 ×10⁻⁶ cm/s

---

Cmax: recorded values
# experimentDescription: Mouse Pharmacokinetics Study
# Type: in vivo
# condition: mouse; CD-1 mice, PO 25 mg/kg, plasma
Answer with a number only, understood to be in ng/mL.

CCCS(=O)(=O)Nc1cccc(Oc2ccc3c(c2)C2=NCCN2C=N3)c1Cl [Compound 6]; 4220

As a next step, examine the compound that follows.
Given the compound CCCS(=O)(=O)Nc1cccc(Oc2ccc3c(c2)C2=NCCCN2C=N3)c1Cl [Compound 21] , what is its reported Cmax? 11700

---

# Test system: P-glycoprotein (MDR1)
# experimentDescription: MDCK-MDR1 Permeability Assay
# Type: in vitro ADME, canine
# condition: dog; MDCK-MDR1, Papp(B-A)/Papp(A-B)
experimentalReadout: efflux ratio at 120 min
Write the number on its own, no unit after it.

Given the compound CCCS(=O)(=O)Nc1c(F)ccc(Oc2ccc3c(c2)C2=NCCN2C=N3)c1C#N , what is its reported efflux ratio at 120 min? 1.82

Given the compound CCCS(=O)(=O)Nc1nccc(Oc2ccc3c(c2)C2=NCCCN2C=N3)c1Cl , what is its reported efflux ratio at 120 min? 4.98

---

Tmax: recorded values
# experimentDescription: Mouse Pharmacokinetics Study
# Format: in vivo
# condition: mouse; CD-1 mice, PO 25 mg/kg, plasma
Answer with a number only, understood to be in min.

CCCS(=O)(=O)Nc1cccc(Oc2ccc3c(c2)C2=NCCN2C=N3)c1Cl; 15

As a next step, examine the molecule that follows.
Given the molecule CCCS(=O)(=O)Nc1cccc(Oc2ccc3c(c2)C2=NCCCN2C=N3)c1Cl , what is its reported Tmax? 30

---

# experimentDescription: Mouse Pharmacokinetics Study
# Format: in vivo
# condition: mouse; CD-1 mice, PO 30 mg/kg, plasma
experimentalReadout: Cmax (ng/mL)
Answer with a number only, understood to be in ng/mL.

Given the compound CCCS(=O)(=O)Nc1cccc(Oc2ccc3c(c2)C2=NCCN2C=N3)c1C#N , what is its reported Cmax? 37300

---

# experimentDescription: Caco-2 Permeability Assay
# Format: in vitro ADME
# condition: human; Caco-2, apical to basolateral, 1-30 μM, 120 minutes
experimentalReadout: Papp A→B at 120 min (×10⁻⁶ cm/s)
Answer with a number only, understood to be in ×10⁻⁶ cm/s.

Given the compound CCCS(=O)(=O)Nc1cccc(Oc2ccc3c(c2)C2=NCCN2C=N3)c1Cl [Compound 6] , what is its reported Papp A→B at 120 min? 43.5

Given the compound N#Cc1c(NS(=O)(=O)c2ccccc2F)cccc1Oc1ccc2c(c1)C1=NCCN1C=N2 [Compound 14] , what is its reported Papp A→B at 120 min? 6.37

Given the compound N#Cc1c(NS(=O)(=O)c2cccs2)cccc1Oc1ccc2c(c1)C1=NCCN1C=N2 [Compound 15] , what is its reported Papp A→B at 120 min? 5.08

Given the compound CCCS(=O)(=O)Nc1ccc(F)c(Oc2ccc3c(c2)C2=NCCN2C=N3)c1C#N [Compound 3] , what is its reported Papp A→B at 120 min? 9.24

---

# System: P-glycoprotein (MDR1)
# experimentDescription: MDCK-MDR1 Permeability Assay
# Format: in vitro ADME, canine
# condition: dog; MDCK-MDR1, apical to basolateral, 1-30 μM, 120 minutes
experimentalReadout: Papp A→B at 120 min (×10⁻⁶ cm/s)
Answer with a number only, understood to be in ×10⁻⁶ cm/s.

Some solved entries appear below for comparison.
CCCS(=O)(=O)Nc1cccc(Oc2ccc3c(c2)C2=NCCCN2C=N3)c1C#N [Compound 16]; 1.01
CCCS(=O)(=O)Nc1c(F)ccc(Oc2ccc3c(c2)C2=NCCN2C=N3)c1C#N [Compound 5]; 1.21

As a next step, examine the molecule that follows.
For the record O=S(=O)(Nc1cccc(Oc2ccc3c(c2)C2=NCCN2C=N3)c1Cl)N1CC[C@@H](F)C1 [Compound 46] , what value of Papp A→B at 120 min is listed for P-glycoprotein (MDR1)? 20.8

---

# experimentDescription: Mouse Pharmacokinetics Study
# Assay type: in vivo
# condition: mouse, plasma; CD-1 mice, IV 2.5 mg/kg
Vd: recorded values
The answer consists of two parts: a number and, after it, its unit.

CCCS(=O)(=O)Nc1cccc(Oc2ccc3c(c2)C2=NCCN2C=N3)c1C#N [Compound 1]; 0.348 L/kg
CCCS(=O)(=O)Nc1cccc(Oc2ccc3c(c2)C2=NCCCN2C=N3)c1Cl [Compound 21]; 0.948 L/kg

As a next step, examine the compound that follows.
Given the compound CCCS(=O)(=O)Nc1cccc(Oc2ccc3c(c2)C2=NCCN2C=N3)c1Cl [Compound 6] , what is its reported Vd? 1.22 L/kg

---

# experimentDescription: Caco-2 Permeability Assay
# Format: in vitro ADME
# condition: human; Caco-2, apical to basolateral, 1-30 μM, 120 minutes
Papp A→B at 120 min: recorded values
Answer with a number only, understood to be in ×10⁻⁶ cm/s.

Some solved entries appear below for comparison.
CCCS(=O)(=O)Nc1cccc(Oc2ccc3c(c2)C2=NCCCN2C=N3)c1Cl [Compound 21]; 52.9
CCCS(=O)(=O)Nc1cccc(Oc2ccc3c(c2)C2=NCCCN2C=N3)c1F [Compound 18]; 11.3

As a next step, examine the compound that follows.
Given the compound CCCS(=O)(=O)Nc1cccc(Oc2ccc3c(c2)C2=NCCN2C=N3)c1C#N [Compound 1] , what is its reported Papp A→B at 120 min? 6.42

---

# Tested on: P-glycoprotein (MDR1)
# experimentDescription: MDCK-MDR1 Permeability Assay
# Type: in vitro ADME, canine
# condition: dog; MDCK-MDR1, Papp(B-A)/Papp(A-B)
// Not met strictly below 3 in efflux ratio at 120 min; Met otherwise

Entry CCCS(=O)(=O)Nc1cccc(Oc2ccc3c(c2)C2=NCCN2C=N3)c1Cl : is its efflux ratio at 120 min no less than 3? Not met

Entry N#Cc1c(NS(=O)(=O)c2cccs2)cccc1Oc1ccc2c(c1)C1=NCCN1C=N2 : is its efflux ratio at 120 min no less than 3? Not met

Entry CCCS(=O)(=O)Nc1ccc(F)c(Oc2ccc3c(c2)C2=NCCN2C=N3)c1C#N : is its efflux ratio at 120 min no less than 3? Met

Entry N#Cc1c(NS(=O)(=O)c2ccccc2F)cccc1Oc1ccc2c(c1)C1=NCCN1C=N2 : is its efflux ratio at 120 min no less than 3? Not met

Entry CCCS(=O)(=O)Nc1cccc(Oc2ccc3c(c2)C2=NCCN2C=N3)c1C(F)(F)F : is its efflux ratio at 120 min no less than 3? Not met

Entry CCCS(=O)(=O)N(C)c1cccc(Oc2ccc3c(c2)C2=NCCN2C=N3)c1C#N : is its efflux ratio at 120 min no less than 3? Not met

Entry CCCS(=O)(=O)Nc1cccc(Oc2ccc3c(c2)C2=NCCCN2C=N3)c1Cl : is its efflux ratio at 120 min no less than 3? Not met

Entry CCCS(=O)(=O)Nc1cccc(Oc2ccc3c(c2)C2=NCCCN2C=N3)c1C#N : is its efflux ratio at 120 min no less than 3? Met

Entry CCCS(=O)(=O)Nc1ccc(F)c(Oc2ccc3c(c2)C2=NCCCN2C=N3)c1C#N : is its efflux ratio at 120 min no less than 3? Met

Entry CCCS(=O)(=O)Nc1cccc(Oc2ccc3c(c2)C2=NCCN2C=N3)c1[N+](=O)[O-] : is its efflux ratio at 120 min no less than 3? Met

Entry CCCS(=O)(=O)Nc1cccc(Oc2ccc3c(c2)C2=NCCN2C=N3)c1F : is its efflux ratio at 120 min no less than 3? Not met

Entry O=S(=O)(Nc1cccc(Oc2ccc3c(c2)C2=NCCN2C=N3)c1Cl)N1CC[C@@H](F)C1 : is its efflux ratio at 120 min no less than 3? Not met

Entry CCCS(=O)(=O)Nc1cccc(Oc2ccc3c(c2)C2=NCCN2C=N3)c1C#N : is its efflux ratio at 120 min no less than 3? Met

The reported measurements were obtained from patent US11254680B2.
